Test: Anticancer human tumor 997537-175-T-J1-PDC patient-derived colon adenocarcinoma cell line growth inhibition [POLQ];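 note: luminescence signal used as a surrogate for viable cells; spheroids exposed to drugs for seven days before readout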
Details: 997537-175-T-J1-PDC complex spheroid viability, combination with POLQ inhibitors; curve of first compound; second compound 3.16 µM
Reported IC50 values follow for various compounds
Property Measured: IC50

{"Compound": "C=CC(=O)N1CCN(c2nc(=O)n(-c3c(C)ccnc3C(C)C)c3nc(-c4c(O)cccc4F)c(F)cc23)C(C)C1 (stereo not given) + Nc1ccc(C#CCN(C(=O)Cc2ncc(C(F)(F)F)cc2C(F)(F)F)c2ccc(F)cc2)nn1", "Property Measured": "IC50", "Value Measured": "> 10 µM"}
{"Compound": "Cn1ncnc1[C@H]1c2n[nH]c(=O)c3cc(F)cc(c23)N[C@@H]1c1ccc(F)cc1 + COC1C(OC(N)=O)C(O)C(Oc2ccc3c(O)c(NC(=O)c4ccc(O)c(CC=C(C)C)c4)c(=O)oc3c2C)OC1(C)C", "Property Measured": "IC50", "Value Measured": "> 0.1 µM"}
{"Compound": "Nc1ccn(C2OC(CO)C(O)C2(F)F)c(=O)n1 (stereo not given) + COC1C(OC(N)=O)C(O)C(Oc2ccc3c(O)c(NC(=O)c4ccc(O)c(CC=C(C)C)c4)c(=O)oc3c2C)OC1(C)C", "Property Measured": "IC50", "Value Measured": "> 10 µM"}
{"Compound": "O=C(c1cc(Cc2n[nH]c(=O)c3ccccc23)ccc1F)N1CCN(C(=O)C2CC2)CC1 + Cc1cccc(N(C)C(=O)C2C(O)CCN2c2nc(C)cc(C(F)(F)F)c2C#N)c1", "Property Measured": "IC50", "Value Measured": "> 10 µM"}
{"Compound": "COc1ccc([C@@H](O)c2cc(-c3ncnc4cc(N5CCOCC5)ccc34)c(F)cc2Cl)nn1 + Cc1cccc(N(C)C(=O)C2C(O)CCN2c2nc(C)cc(C(F)(F)F)c2C#N)c1", "Property Measured": "IC50", "Value Measured": "> 10 µM"}
